Source: PubChem BioAssay AID492998

# TEST_DESCRIPTION: Vero E6 cell cytotoxicity, dose response, cytotoxicity control for non-replicating M. tuberculosis project, secondary assay (AID 492998)
# APPLIED_CONDITIONS: series mostly up to 20 µM
In all, about 2,300 compounds went through this assay and about 550 (24%) were called active. A selection follows. Potency and affinity values are given separately.
ENDPOINT_NAME: outcome

Worked examples follow.
1) Cn1c(CNc2ccccc2O)nc2ccccc21	inactive
2) Cn1[nH]c(-c2ccccc2)c(/C=N/O)c1=O	inactive
3) COc1ccc(N2CCN(CC(=O)NC(=O)NC(C)(C)C)CC2)cc1	inactive
4) Cc1cccc(NC(=O)COC(=O)CCc2c[nH]c3ccccc23)c1	inactive
5) O=C(Nc1ccc(-c2nc3ccccc3c(=O)o2)cc1)c1ccco1	inactive
6) COc1ccc(CN=C(C#N)C2=C(O)c3ccccc3C2=O)cc1	inactive

Ask: Could you tell me which outcome is on file for COc1ccc(-c2noc(-c3cc4ccccc4oc3=O)n2)cc1 ?
Reply: inactive

Ask: Another compound to look at: CCn1cc(C(=O)O)c(=O)c2cc(F)c(N3CCN(C(=S)NC(=O)c4ccccc4)CC3)cc21
Reply: inactive

Ask: What about this compound? COCCCNC(=O)COC(=O)c1ccc(-c2nc3ccccc3s2)s1
Reply: inactive

Ask: Can you check CCCCOC(=O)c1ccc(NC(=O)c2nn(C)cc2Br)cc1 next?
Reply: inactive

Ask: Could you do the same for O=C(COc1ccc(Br)cc1)N/N=C1/SCC(=O)N1Cc1ccco1 , please?
Reply: inactive

###

# TEST_DESCRIPTION: Vero E6 cell cytotoxicity, dose response, cytotoxicity control for non-replicating M. tuberculosis project, secondary assay (AID 492998)
# APPLIED_CONDITIONS: series mostly up to 20 µM
In all, about 2,300 compounds went through this assay and about 550 (24%) were called active. These entries were drawn from the full list. Results with a measured potency or affinity are listed apart.
ENDPOINT_NAME: outcome

Examples with their reported outcome follow.
1) O=C(Nc1nc2c(Cl)cccc2s1)c1ccc([N+](=O)[O-])o1	inactive
2) CC(C)CN1C(=O)CC(Sc2ccccc2C(=O)O)C1=O (stereo unspecified)	inactive
3) O=C(NC1CCCC1)c1cc(-c2cccs2)on1	inactive
4) Cc1ccsc1C(=O)OCC(=O)Nc1nnc(-c2ccccc2)o1	inactive
5) O=C(NNC1CC(=O)N(c2ccccc2)C1=O)c1ccco1 (stereo unspecified)	inactive

Moving on to another molecule below.
Ask: Please report the recorded outcome for Cc1ccccc1-n1c(C)cc(/C=N/NC(=O)c2ccncc2)c1C .
Reply: inactive

###

# TEST_DESCRIPTION: Vero E6 cell cytotoxicity, dose response, cytotoxicity control for non-replicating M. tuberculosis project, secondary assay (AID 492998)
# APPLIED_CONDITIONS: series mostly up to 20 µM
In all, about 2,300 compounds went through this assay and about 550 (24%) were called active. Not all results are given here. Measured potencies and affinities stand elsewhere.
ENDPOINT_NAME: outcome

1) S=C(Nc1ccc2c(c1)OCO2)Nc1ccc2c(c1)OCO2	inactive
2) COC(=O)COc1ccc2c(-c3cccc([N+](=O)[O-])c3)cc(=O)oc2c1	inactive
3) CC(C)(C)c1ccccc1OCCOCCN1CCCCCC1	inactive
4) CCc1cc(OCCCCNCc2ccccc2)ccc1Cl	inactive
5) CC(C)CNc1nc(=S)nc(N(C)C)[nH]1	inactive
6) C=C[C@]1(C)C=C2CCC3[C@](C)(CCC[C@@]3(C)C(=O)O)C2CC1 (stereo partly specified)	inactive
7) Cc1cccc(OCCCCc2c(C)n[nH]c2C)c1	inactive
8) Fc1ccc(-c2nn(-c3ccccc3)cc2CNCc2ccccc2)cc1	inactive
9) FC(F)(F)c1ccc(NCCc2ccccc2)nc1	inactive
10) CCN1CCN(C(=O)CN(Cc2ccccc2)S(C)(=O)=O)CC1	inactive

Ask: Sample CC1=NN(C(=O)c2ccc(C)o2)C(O)(c2ccccc2)C1 (stereo unspecified) — what was its outcome?
Reply: inactive

###

# TEST_DESCRIPTION: Vero E6 cell cytotoxicity, dose response, cytotoxicity control for non-replicating M. tuberculosis project, secondary assay (AID 492998)
# APPLIED_CONDITIONS: series mostly up to 20 µM
The campaign covered roughly 2,300 compounds. About 550 (24%) were called active. A selection follows. Results with a measured potency or affinity are listed apart.
ENDPOINT_NAME: outcome

These solved cases illustrate the format of a correct answer.
1. Cc1ccc(-n2cc(CNCCc3cscn3)c(-c3ccc(F)cc3)n2)cc1	inactive
2. O=C(CC1CCCCC1)NCc1ccccc1	inactive
3. CCOC(=O)c1csc(COc2ccccc2Cl)n1	inactive
4. O=C(NCCC1CCCC1)c1cccs1	inactive
5. Cc1ccc(-n2cc(CNCCn3nc(C)cc3C)c(-c3ccc(F)cc3)n2)cc1	inactive

Now for another entry.
Ask: Would you kindly share the measured outcome for Nc1nc2ccccc2n1CCOc1ccc(Br)cc1 ?
Reply: inactive

###

# TEST_DESCRIPTION: Vero E6 cell cytotoxicity, dose response, cytotoxicity control for non-replicating M. tuberculosis project, secondary assay (AID 492998)
# APPLIED_CONDITIONS: series mostly up to 20 µM
Screen size: about 2,300 compounds; about 550 (24%) were called active. Only a sample is shown. Entries with a potency or affinity are not part of this list.
ENDPOINT_NAME: outcome

1) CCOc1ccc(OCC(=O)OCc2cc(=O)n3cc(Br)ccc3n2)cc1	inactive
2) CCCc1cc(=O)n2[nH]c(C)c(-c3ccccc3)c2n1	inactive
3) Clc1cccc(-c2ccc(CNCc3ccccn3)o2)c1	inactive
4) CC(C)[C@@H]1CC[C@@H](C)C[C@H]1OC(=O)C[n+]1cc(-c2ccc(Cl)cc2)n2c1CCCCC2	inactive
5) O=C(OCn1nnc2ccccc2c1=O)c1cccs1	inactive

Kindly review the next compound as well.
Ask: Any idea what its outcome is? The compound is Cc1cccc(Cn2ccc(NC(=O)c3ccc4c(c3)OCO4)n2)c1
Reply: inactive

###

# TEST_DESCRIPTION: Vero E6 cell cytotoxicity, dose response, cytotoxicity control for non-replicating M. tuberculosis project, secondary assay (AID 492998)
# APPLIED_CONDITIONS: series mostly up to 20 µM
In all, about 2,300 compounds went through this assay and about 550 (24%) were called active. Not all results are given here. Potency and affinity values are given separately.
ENDPOINT_NAME: outcome

Example entries and their recorded answers appear below.
1. CCCCN1CCC(O)(c2ccccc2)C(C(=O)c2ccccc2)C1 (configuration not stated)	inactive
2. Cc1ccc2c(c1)c1c3n2CCN=C3CCC1	inactive
3. COC(=O)c1ccccc1NC(=O)C1CC(c2ccc(F)cc2)=NO1 (configuration not stated)	inactive
4. CC(/C=C/c1cccc([N+](=O)[O-])c1)=N\NC(=O)c1ccncc1	inactive
5. O=C1/C(=C/c2ccccn2)COc2ccccc21	inactive

Ask: Name the reported outcome value associated with the compound O=C(NNc1nc2ccccc2s1)c1ccc(F)cc1
Reply: inactive

Ask: Then O=C(COC(=O)CC12CC3CC(CC(C3)C1)C2)Nc1cccnc1Cl ?
Reply: inactive

Ask: Next up: CCOC(=O)COc1cc(N)c(Cl)cc1Cl
Reply: inactive

###

# TEST_DESCRIPTION: Vero E6 cell cytotoxicity, dose response, cytotoxicity control for non-replicating M. tuberculosis project, secondary assay (AID 492998)
# APPLIED_CONDITIONS: series mostly up to 20 µM
The whole screen tested about 2,300 compounds, of which about 550 (24%) were called active. A selection follows. Measured potencies and affinities stand elsewhere.
ENDPOINT_NAME: outcome

Worked examples follow.
1. COc1cc(OC)cc(OC(=O)c2ccc3c(=O)n4c(nc3c2)CCC4)c1	inactive
2. CCOC(=O)c1cn(Cc2cccc(Cl)c2)nn1	inactive
3. C=CCc1ccc2oc(C(=O)OCC)cc(=O)c2c1O	inactive
4. CCOC(=O)c1cc(-c2csc(COc3ccccc3Cl)n2)on1	inactive

Ask: Consider the molecule CC1=NN(C(=O)c2ccoc2C)C(O)(C(F)(F)F)C1 (stereo unspecified) and give its measured outcome.
Reply: inactive

Ask: And the next one, Cc1ccc(Sc2ncccc2N)cc1 ?
Reply: inactive

###

# TEST_DESCRIPTION: Vero E6 cell cytotoxicity, dose response, cytotoxicity control for non-replicating M. tuberculosis project, secondary assay (AID 492998)
# APPLIED_CONDITIONS: series mostly up to 20 µM
About 550 (24%) of roughly 2,300 compounds were called active. A selection follows. Potency and affinity values are given separately.
ENDPOINT_NAME: outcome

Recorded results for 4 molecules are shown here.
1. Cc1ccc(C(=O)COC(=O)c2cccs2)cc1	inactive
2. C=C1Cn2c(nnc2-c2ccc(Cl)cc2)S1	inactive
3. Cc1ccc2cc(/C=N/NC(=O)[C@H](C)NC(=O)OC(C)(C)C)c(Cl)nc2c1	inactive
4. COc1ccc(C(=O)OCn2nnc3ccccc3c2=O)cc1	inactive

Ask: Which outcome reading was recorded for the molecule CCc1ccc(N2C(=O)NC(=O)/C(=C\C=C\c3ccco3)C2=O)cc1 ?
Reply: inactive

Ask: Also, Cc1ccc(NC(=O)ON=C2CCCC2)cc1 please.
Reply: inactive

Ask: // same read-out, input: O=C(Nc1ncc([N+](=O)[O-])s1)c1ccc2c(c1)OCO2
Reply: inactive

Ask: Same question, Cc1ccc(/C=C2\SC(=S)N(C3CCS(=O)(=O)C3)C2=O)o1 (stereo unspecified) this time
Reply: inactive

Ask: Can you handle O=C(CCC1CCCCC1)NCc1ccc(F)cc1 next?
Reply: inactive

Ask: Same again, this time with COc1cccc(N2C(=O)NC(=O)/C(=C/c3ccc([N+](=O)[O-])s3)C2=O)c1
Reply: inactive

Ask: Same lookup for CCNC(=O)NC(=O)C(C)OC(=O)CCCSc1nc2ccccc2s1 (stereo unspecified) , please.
Reply: inactive
